Assay: CD spectra, secondary structure by BeStSel
Type: physicochemical
Details: 30 μM SDS as printed, 100 μM peptide, 25 °C
Ends that are not written are not given here.
Measured property: β-Antiparallel (%)
Numbers only, in %.

Please give the measured β-Antiparallel for this substance: KKRVWKRVFKLLKRYWRQLKKPVR-NH2 [SAAP-1]
6.5

Give me β-Antiparallel for each of these substances, listed below.
1. LKRVWKRVKKLLKRYWRQLKKPVR-NH2 [SAAP-5]
2. LKRVKKRVFKLLKRYWRQLKKPVR-NH2 [SAAP-3]
3. LKRVWKRVFKLLKRYWRKLKKPVR-NH2 [SAAP-10]
4. LKRVWKRVFKLLKRKWRQLKKPVR-NH2 [SAAP-8]
5. LKRVWKRVFKLLKRYWRQKKKPVR-NH2 [SAAP-11]
6. LKRVWKRVFKLLKRYWRQLKKPKR-NH2 [SAAP-13]

0
0
0
0
0
0
